# Tested on: NCI-H226 lung
# METHOD_DESCRIPTION: NCI tumour cell line growth inhibition, 48 h

| COMPOUND | TESTED_ON | TGI |
| --- | --- | --- |
| N#CC(C#N)=C1/C(=C/C=C/C=C/C=C/c2ccc(N3CCCCC3)s2)S(=O)(=O)c2ccccc21 | NCI-H226 lung | > 100 µM |
| CC(CO)(CO)N1C(=O)C2C3c4ccccc4C(c4ccccc43)C2C1=O (stereo not drawn) | NCI-H226 lung | > 100 µM |
| O=C(Nc1ccc(-n2ccc3c(NC(=O)c4ccccc4)ncnc32)cc1)c1ccc(Cl)c(C(F)(F)F)c1 | NCI-H226 lung | 25.1 µM |
| NC(=O)c1ccc(NCC2=CC(=O)C=CC2=O)cc1 | NCI-H226 lung | > 100 µM |
| c1ccc(-c2cccc(-c3ccccn3)n2)nc1 | NCI-H226 lung | 4.85 µM |
| NC(N)=N/N=C\c1c(-c2cccc([N+](=O)[O-])c2)nc2sc(Cl)cn12 | NCI-H226 lung | > 100 µM |
| NC(CCCNCc1ccccc1)C(=O)O (stereo not drawn) | NCI-H226 lung | > 100 µM |
| CC(C)CNC(=O)c1ccc(NC(=O)N(CC(C)C)C(=O)c2ccc(N)c(OCCCN)c2)c(OCCCN=C(N)N)c1 | NCI-H226 lung | > 62.5 µM |
| O=Cc1cn(CCCCCn2cc(C=O)c3ccccc32)c2ccccc12 | NCI-H226 lung | > 100 µM |
| S=c1nc(COc2ccc(Cl)cc2)[nH][nH]1 | NCI-H226 lung | > 100 µM |
| Cc1cc(NS(=O)(=O)c2ccc(NC(=O)c3ccc(Cl)c4c(Nc5ccc(S(N)(=O)=O)cc5)c5ccccc5nc34)cc2)no1 | NCI-H226 lung | 46 µM |
| NCC(O)CSP(=O)(O)O (stereo not drawn) | NCI-H226 lung | > 100 µM |
| N#C/C(=C/N1C(=O)/C(=C/c2ccc([N+](=O)[O-])cc2)SC1=S)c1nc2ccccc2s1 | NCI-H226 lung | 78.4 µM |
| Cc1cc(C)nc(NS(=O)(=O)c2ccc(Nc3c4ccccc4nc4c(C(=O)N5CCN(CCO)CC5)ccc(Cl)c34)cc2)n1 | NCI-H226 lung | > 100 µM |
| C=CCCC1CCCCNC1=S (stereo not drawn) | NCI-H226 lung | > 10 µM |
| CC(C)S(=O)(=O)ON1C(=O)c2ccc(N(C)C)cc2C1=O | NCI-H226 lung | > 60.9 µM |
| CCN1CCN(Cc2ccc(NC(=O)c3nc4ccc5[nH]ncc5c4c4c3CCCC4)cc2C(F)(F)F)CC1 | NCI-H226 lung | 13.6 µM |
| C=Cc1ccccc1C1C(C(=O)OCC)=C(C)N=C2OC(C(=O)OC)C(=O)N21 (stereo not drawn) | NCI-H226 lung | > 100 µM |
| CCOC(=O)NC(C(F)(F)F)(C(F)(F)F)P(=O)(OCC(C)C)OCC(C)C | NCI-H226 lung | 32.6 µM |
| C/C(=N\NC(=O)c1ccccc1N)c1ccccc1O | NCI-H226 lung | > 100 µM |
| O=C1C(=C2SC(c3ccccc3)(c3ccccc3)c3ccccc32)C(=O)c2ccccc21 | NCI-H226 lung | > 100 µM |
| CCOC(=O)/C=C(\C)c1ccc(Cl)cc1 | NCI-H226 lung | 98.4 µM |
| CC1(C)CC(/C=C2/OC(=O)c3ccccc32)=C(C(N)=O)C(=O)O1 | NCI-H226 lung | > 100 µM |

These data points were gathered from PubChem BioAssay (NCI).
